- run_description: qHTS assay to identify small molecule agonists of the TGF-beta/Smad signaling pathway (AID 1346859)
- conditions: SBE-bla HEK293T, TGF-beta/Smad beta-lactamase reporter, 5 h; series mostly up to 76.8 µM
Inconclusive results are not listed. Active and inactive are the calls of the source. Calls come from the whole dose curve; as a rule, active = well fitted activation curve with a large enough effect in the signal ratio in the repeat runs (not every such curve was filed as active); inconclusive = weak or mixed curves; inactive = flat fitted curve, though single readings scatter; the % refers to the signal ratio.
measured_metric: outcome

Record excerpt, results attached:
{"columns": ["compound", "measured_metric", "result"],
 "data": [
  ["CC(=O)c1ccccc1", "outcome", "inactive"],
  ["CC(=O)CC(=O)Nc1ccccc1C", "outcome", "inactive"],
  ["CC1=CCC2CC1C2(C)C (stereo unspecified)", "outcome", "inactive"],
  ["O=c1[nH]c(=O)n([C@H]2CCCO2)cc1F", "outcome", "inactive"],
  ["COc1ccc2cc([C@H](C)C(=O)O)ccc2c1", "outcome", "inactive"],
  ["O=C(CC(C(=O)OC1CCCCC1)S(=O)(=O)O)OC1CCCCC1 (stereo unspecified)", "outcome", "inactive"],
  ["CCCCCOC(C)=O", "outcome", "inactive"],
  ["OC[C@H]1O[C@@](CO)(O[C@H]2O[C@H](CO)[C@@H](O)[C@H](O)[C@H]2O)[C@@H](O)[C@@H]1O", "outcome", "inactive"]
]}

I would be grateful if you could provide outcome for each of the following entries.
1. Cc1occc(=O)c1O
2. Nc1cc([N+](=O)[O-])ccc1O
3. CCCSc1ccc2nc(NC(=O)OC)[nH]c2c1
4. CCCCC(CC)CO (stereo unspecified)
5. ON=C1CCCCC1

Reply:
inactive
inactive
inactive
inactive
inactive
